# TARGET OR SYSTEM: T1, soluble extracellular domain of human IL-5 receptor alpha subunit (sIL-5Rα) (human, UniProt Q01344)
# T1 construct: human IL-5 receptor alpha subunit (IL-5Rα, CD125), extracellular domain, residues 21–333; subcloned from a cDNA of residues 1–420; Expressed from the pSecTag2A vector; migrates at ~50 kDa (glycosylated); A biotinylated form (BirA) was used only for library screening; also called sIL-5α; CD125; source: HEK293F, transiently transfected, purified (Ni-NTA); not shown: Avi, C-terminal, kept; His6, …
# T1 sequence (Q01344 21-333): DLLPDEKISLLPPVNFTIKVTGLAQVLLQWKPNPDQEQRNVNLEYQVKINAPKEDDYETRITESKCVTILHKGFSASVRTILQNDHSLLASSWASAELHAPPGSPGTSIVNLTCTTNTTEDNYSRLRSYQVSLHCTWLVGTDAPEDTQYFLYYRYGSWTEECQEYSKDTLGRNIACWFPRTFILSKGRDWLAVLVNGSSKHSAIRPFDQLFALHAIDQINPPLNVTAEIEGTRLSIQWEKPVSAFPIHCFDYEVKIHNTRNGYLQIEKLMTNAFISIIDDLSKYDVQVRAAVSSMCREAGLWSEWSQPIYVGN
# TEST: BLI; Octet QKe, 30°C, 1× kinetics buffer in PBS pH 7.4; Ab immobilised on anti-human IgG Fc capture (AHC) biosensors, sIL-5Rα as analyte; association 300 s, dissociation 600 s; 1:1 binding model
# TEST CONDITIONS: both partners purified
Examples of binders with documented Kd follow.
Only the number, expressed in nM, is required.

- BINDER: "5R68 (antibody, V domains shown, Human IgG1, kappa; selected as scFab by yeast display from the hu2B7 VH-CDR2 library; source: HEK293F, purified (Protein A)) VH: QVQLVQSGAEVKKPGSSVKVSCKASGYTFTSYWINWVRQAPGQGLEWIGHIYPTATIAVYNDKFKDKATLTVDKSTNTAYMELSSLRSEDTAVYYCTRDYYGRSYYYAMDYWGQGTTLTVSS VL: DIQMTQSPSTLSASVGDRVTITCKASQNVGTAVAWYQQKPGKAPKLLIYWASTRHTGVPDRFSGSGSGTDFTLTISSLQPDDFATYYCQQFGRYPYTFGSGTKVEVK"
  MEASURED VALUE: 24.1

Looking up benralizumab analogue (antibody, V domains shown, VH of benralizumab, made by DNA synthesis; VL of benralizumab, made by DNA synthesis; Human IgG1, kappa; VH and VL identical to commercial benralizumab but with core fucose on the Fc N-glycan; also called benralizumab analogue (fucosylated human IgG1); source: HEK293F, transiently transfected, purified (Protein A)) VH: EVQLVQSGAEVKKPGASVKVSCKASGYTFTSYVIHWVRQRPGQGLAWMGYINPYNDGTKYNERFKGKVTITSDRSTSTVYMELSSLRSEDTAVYLCGREGIRYYGLLGDYWGQGTLVTVSS VL: DIQMTQSPSSLSASVGDRVTITCGTSEDIINYLNWYQQKPGKAPKLLIYHTSRLQSGVPSRFSGSGSGTDFTLTISSLQPEDFATYYCQQGYTLPYTFGQGTKVEIK , I found its Kd recorded as 26.8
